FYI, the data here is from patent US20230144824A1.

Test system: CD69
assay_comment: Induction of CD69 in human whole blood
Type: cell-based
test_parameters: Homo sapiens, 17 h, 100% set to 1 uM of resiquimod, average where assay performed multiple times, read-out: hWB CD69 EC50
observed_property: pEC50
Just the number, please; pEC50 means minus log10 of the concentration in mol/L.

Known results for molecules:
molecule	pEC50
CCCCNc1nc(N)nc2cnn(Cc3cc(F)c(N4CCN(C(=O)CN5CC(O)C5)CC4)cc3OC)c12	6.00
CCCCNc1nc(N)nc2cnn(Cc3ncc(C4CCN(C)CC4)cc3OC)c12	8.27
CCC[C@@H](CCO)Nc1nc(N)nc2cnn(Cc3nc(C4CCN(C5CCOCC5)CC4)ccc3OC)c12	8.01

Incoming: I am curious: what pEC50 value has been reported for CCC[C@@H](CCO)Nc1nc(N)nc2cnn(Cc3ncc(C4CCN(C(=O)CCN(C)C)CC4)cc3OC)c12 ?
Outgoing: 7.37

Incoming: I am curious: what pEC50 value has been reported for CCCCNc1nc(N)nc2cnn(Cc3ncc(C4CCN(C(C)C)CC4)cc3OC)c12 ?
Outgoing: 8.03

Incoming: I am curious: what pEC50 value has been reported for CCC[C@@H](CCO)Nc1nc(N)nc2cnn(Cc3ncc(C4CCN(C5CC6(CNC6)C5)CC4)cc3OC)c12 ?
Outgoing: 7.36

Incoming: I am curious: what pEC50 value has been reported for CCC[C@@H](CCO)Nc1nc(N)nc2cnn(Cc3nc(C4CCN(C(=O)CN(C)C)CC4)ccc3OC)c12 ?
Outgoing: 7.09

Incoming: I am curious: what pEC50 value has been reported for CCCCNc1nc(N)nc2cnn(Cc3ncc(C4CCN(S(C)(=O)=O)CC4)cc3OC)c12 ?
Outgoing: 6.25

Incoming: I am curious: what pEC50 value has been reported for CCC[C@@H](CCO)Nc1nc(N)nc2cnn(Cc3cnc(C4CCN(CC(C)(C)O)CC4)cc3OC)c12 ?
Outgoing: 9.68

Incoming: I am curious: what pEC50 value has been reported for CCC[C@@H](CCO)Nc1nc(N)nc2cnn(Cc3ncc(C4CCCN4)cc3OC)c12 (stereo partly shown) ?
Outgoing: 8.70
